Here the recorded pEC50 is given for each entry.
# system.tested: T1, human IL6R-Fc protein (human, biotin-labeled in the ELISAs (sites not given))
# T1 construct: In house made; also called biotin-labeled human IL6R-Fc protein
# assay.method.text: capture ELISA: antibody captured on anti-IgG F(ab')2 coated plate, then biotin-labeled human IL6R-Fc, streptavidin-HRP
Reminder that pEC50 means the negative base-10 logarithm of the concentration expressed in mol/L.

Solved entries:
binder: mouse anti-IL6R monoclonal antibody 1H7 (antibody, V domains shown, Mouse hybridoma mAb) VH: QVQLQQPGTELVKPGASVKLSCKASGYTFTNYWMHWVKQRPGQGLDWIGEINPTNGRTNYNENFKSKATLTVDKSSSTAYMQLSSLTSEDSAVYYCARLNTHYVFDSWGQGTTLTLSS VL: EIVLTQSPTTLAASPGEKITFTCSVSSSISSNYLHWYQQKPGFSPKLLISRTSTLASGVPARFSGSGSGTSYSLTIGTMEAEDVATYYCQQGSGIPFTFGSGTKLELK
pEC50: 9.79
//
binder: Tocilizumab (antibody, human IgG1, kappa, V domains shown, In house made; also called benchmark; Actemra) VH: QVQLQESGPGLVRPSQTLSLTCTVSGYSITSDHAWSWVRQPPGRGLEWIGYISYSGITTYNPSLKSRVTMLRDTSKNQFSLRLSSVTAADTAVYYCARSLARTTAMDYWGQGSLVTVSS VL: DIQMTQSPSSLSASVGDRVTITCRASQDISSYLNWYQQKPGKAPKLLIYYTSRLHSGVPSRFSGSGSGTDFTFTISSLQPEDIATYYCQQGNTLPYTFGQGTKVEIKR
pEC50: 9.30

Kindly review the next binder as well.
Query: Give a short answer stating reported pEC50 for humanized antibody hu1H7-V5 (antibody, human IgG1, kappa, V domains shown, Human IgG1 / kappa) VH: QVQLVQSGAEVKKPGASVKVSCKASGYTFTNYWMHWVRQAPGQGLEWIGEINPTNGRTNYNENFKSRVTLTVDTSTSTVYMELSSLRSEDTAVYYCARLNTHYVFDSWGQGTLVTVSS VL: EIVLTQSPGTLSLSPGERATLSCSVSSSISSNYLHWYQQKPGLSPRLLISRTSTLASGIPARFSGSGSGTEYTLTISRMQSEDFAVYYCQQGSGIPFTFGQGTKLEIKR .
Reply: 9.51
